Below, each entry is listed alongside its reported growth at 100 µM.
Tested on: M14
experiment.description: Growth inhibition of human M14 cells assessed as cell growth at 10^-4 M by sulforhodamine B assay
Format: functional
condition.context: read-out: Activity

molecule	growth at 100 µM [%]
CC1(C)C[C@@H](O)[C@]2(C(=O)O)CC[C@]3(C)C(=CC[C@@H]4[C@@]5(C)C/C(=C\C=C\c6ccccc6)C(=O)C(C)(C)[C@@H]5CC[C@]43C)[C@@H]2C1	-77
CC(C)=CC(=O)O[C@@H]1CC(C)(C)C[C@H]2C3=CC[C@@H]4[C@@]5(C)CCC(=O)C(C)(C)[C@@H]5CC[C@@]4(C)[C@]3(C)CC[C@@]12C(=O)O	-62
C/C=C(/C)C(=O)O[C@@H]1CC(C)(C)C[C@H]2C3=CC[C@@H]4[C@@]5(C)CCC(=O)C(C)(C)[C@@H]5CC[C@@]4(C)[C@]3(C)CC[C@@]12C(=O)O [LANTADENE A]	23
C/C=C(/C)C(=O)O[C@@H]1CC(C)(C)C[C@H]2C3=CC[C@@H]4[C@@]5(C)CC[C@H](O)C(C)(C)[C@@H]5CC[C@@]4(C)[C@]3(C)CC[C@@]12C(=O)O [Reduced Lantadene A]	-48
CC(C)=CC(=O)O[C@@H]1CC(C)(C)C[C@H]2C3=CC[C@@H]4[C@@]5(C)CC[C@H](O)C(C)(C)[C@@H]5CC[C@@]4(C)[C@]3(C)CC[C@@]12C(=O)O [Reduced Lantadene B]	-69
